assay-procedure: Primary qHTS for inhibitors of SARS-S pseudo-typed particle cell entry (AID 1479145); further: on the % scale 0 is the no-effect control and ±100 the full control effect; nearly all actives have a fitted effect of over 45% in size
reported-conditions: SARS-S pseudotyped particle cell entry, luciferase reporter; series mostly up to 57.1 µM
Inconclusive results are not listed. Active and inactive are the calls of the source. The call rests on the fitted dose curve.

# molecule, activity change, negative = inhibition
data = [
    ("NC[C@@H]1O[C@H](O[C@H]2[C@H](O)[C@H](O[C@H]3[C@@H](O)[C@H](N)C[C@H](N)[C@H]3O[C@H]3O[C@H](CN)[C@H](O)[C@H](O)[C@H]3N)O[C@@H]2CO)[C@@H](N)[C@@H](O)[C@@H]1O", "-20.9% [at 5.34 µM] (inactive)"),
    ("CN[C@@H]1[C@H](O[C@H]2[C@H](O[C@@H]3[C@@H](O)[C@H](O)[C@@H](N=C(N)N)[C@H](O)[C@H]3N=C(N)N)O[C@@H](C)[C@]2(O)C=O)O[C@@H](CO)[C@H](O)[C@H]1O", "-20.2% [at 11.4 µM] (inactive)"),
    ("C[C@@H](O)[C@H]1C(=O)N2C(C(=O)[O-])=C(SC3Cn4cnc[n+]4C3)[C@H](C)[C@H]12 (stereo partly specified)", "-18.9% [at 11.4 µM] (inactive)"),
    ("NC[C@@H]1O[C@H](O[C@H]2[C@@H](O)[C@H](O[C@@H]3[C@@H](O)[C@H](N)C[C@H](N)[C@H]3O[C@H]3O[C@H](CO)[C@@H](O)[C@H](O)[C@H]3N)O[C@@H]2CO)[C@H](N)[C@@H](O)[C@@H]1O", "-8.64% [at 0.573 µM] (inactive)"),
    ("CC(C=CC1=C(C)CCCC1(C)C)=CC=CC(C)=CC(=O)Oc1c(C)c(C)c2c(c1C)CC[C@@](C)(CCC[C@H](C)CCC[C@H](C)CCCC(C)C)O2", "-3.62% [at 5.34 µM] (inactive)"),
    ("Cc1cc(N)c2ccccc2[n+]1CCCCCCCCCC[n+]1c(C)cc(N)c2ccccc21", "-2.83% [at 11.4 µM] (inactive)"),
]

Value source: PubChem BioAssay (NCATS)
